target: ROCK2 (Homo sapiens, UniProt O75116)
Sequence (O75116 whole entry, species assumed): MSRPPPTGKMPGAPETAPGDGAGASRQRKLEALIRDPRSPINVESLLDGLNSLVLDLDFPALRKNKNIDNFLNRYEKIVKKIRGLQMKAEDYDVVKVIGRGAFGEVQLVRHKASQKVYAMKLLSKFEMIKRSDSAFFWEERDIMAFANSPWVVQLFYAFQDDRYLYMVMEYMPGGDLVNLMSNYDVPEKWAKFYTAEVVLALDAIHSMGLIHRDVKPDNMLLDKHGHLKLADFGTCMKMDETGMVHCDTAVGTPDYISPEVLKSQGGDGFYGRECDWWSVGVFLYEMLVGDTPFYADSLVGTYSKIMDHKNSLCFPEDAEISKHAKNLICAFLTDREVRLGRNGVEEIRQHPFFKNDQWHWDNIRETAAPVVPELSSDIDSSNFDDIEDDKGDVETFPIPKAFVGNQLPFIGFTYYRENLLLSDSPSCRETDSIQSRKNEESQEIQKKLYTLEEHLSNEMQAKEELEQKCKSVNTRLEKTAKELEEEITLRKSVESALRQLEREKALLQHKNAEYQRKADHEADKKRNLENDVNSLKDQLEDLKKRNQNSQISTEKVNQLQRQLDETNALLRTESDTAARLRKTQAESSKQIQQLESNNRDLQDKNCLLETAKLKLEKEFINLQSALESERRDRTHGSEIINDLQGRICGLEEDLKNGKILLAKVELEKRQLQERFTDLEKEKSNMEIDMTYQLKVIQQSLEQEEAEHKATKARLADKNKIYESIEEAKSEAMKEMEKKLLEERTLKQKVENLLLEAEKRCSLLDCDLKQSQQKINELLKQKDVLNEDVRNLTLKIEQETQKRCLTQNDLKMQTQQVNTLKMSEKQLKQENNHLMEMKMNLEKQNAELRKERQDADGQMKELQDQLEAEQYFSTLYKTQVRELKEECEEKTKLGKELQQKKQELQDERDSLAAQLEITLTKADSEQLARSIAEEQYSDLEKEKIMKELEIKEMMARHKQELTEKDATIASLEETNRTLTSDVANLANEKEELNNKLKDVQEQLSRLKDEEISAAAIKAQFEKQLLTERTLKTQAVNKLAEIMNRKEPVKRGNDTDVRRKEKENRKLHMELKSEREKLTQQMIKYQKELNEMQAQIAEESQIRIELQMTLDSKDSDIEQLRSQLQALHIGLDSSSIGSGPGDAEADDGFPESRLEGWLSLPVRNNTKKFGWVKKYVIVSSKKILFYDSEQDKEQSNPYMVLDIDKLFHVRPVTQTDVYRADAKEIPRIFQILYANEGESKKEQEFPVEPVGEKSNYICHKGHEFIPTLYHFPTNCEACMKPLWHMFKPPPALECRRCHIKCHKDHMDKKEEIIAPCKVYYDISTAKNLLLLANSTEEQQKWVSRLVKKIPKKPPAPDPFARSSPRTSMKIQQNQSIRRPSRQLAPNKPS
measure: IC50 (nM)
Answer in nM, number only, no unit symbol.

{"compound": "COc1cc(N2CCC3(CCN(C(=O)c4cnc5ccccc5c4)CC3)C2=O)ccc1-c1cn[nH]c1", "target.of.assay": "ROCK2 (Homo sapiens, UniProt O75116)", "readout.unit": "nM", "IC50": 78}

// fetch ROCK2 (Homo sapiens, UniProt O75116) IC50 for O=C1N(c2ccc(-c3cn[nH]c3)cc2)CCC12CCN(S(=O)(=O)c1ccccc1)C2 (stereo not shown) 750

Form entry - test system: ROCK2 (Homo sapiens, UniProt O75116); read-out: IC50; compound: COc1cccc(NC(=O)N2CCC3(CC2)CCN(c2ccc(-c4cn[nH]c4)c(OC)c2)C3=O)c1 2250

Lookup: IC50 / ROCK2 (Homo sapiens, UniProt O75116) / COc1cc(N2CCC3(CCN(C(=O)c4ccc(N5CCN(Cc6ccc(OCCCN(C)C)cc6)CC5)cc4)CC3)C2=O)ccc1-c1cn[nH]c1 0.1

Test system ROCK2 (Homo sapiens, UniProt O75116); read-out IC50; what value for COc1cc(N2CCC3(CCN(C(=O)c4cc(C5CC5)n[nH]4)CC3)C2=O)ccc1-c1cn[nH]c1 ? 17

Please tell me: IC50 of COc1cc(N2CCC3(CCN(C(=O)c4ccc(-n5cccn5)cc4)CC3)C2=O)ccc1-c1cn[nH]c1 , system ROCK2 (Homo sapiens, UniProt O75116)? 62

// map COc1cc(N2CCC3(CCN(C(=O)c4ccc(N5CCN(C(C)C)CC5)cc4)CC3)C2=O)ccc1-c1cn[nH]c1 to recorded IC50 (system: ROCK2 (Homo sapiens, UniProt O75116)) 0.2
